Data origin: ChEMBL document CHEMBL1138835

System: Bifunctional dihydrofolate reductase-thymidylate synthase (Plasmodium falciparum K1), P13922 [UNDEFINED MUTATION]
Sequence (P13922 whole entry, looked up, stated change not applied): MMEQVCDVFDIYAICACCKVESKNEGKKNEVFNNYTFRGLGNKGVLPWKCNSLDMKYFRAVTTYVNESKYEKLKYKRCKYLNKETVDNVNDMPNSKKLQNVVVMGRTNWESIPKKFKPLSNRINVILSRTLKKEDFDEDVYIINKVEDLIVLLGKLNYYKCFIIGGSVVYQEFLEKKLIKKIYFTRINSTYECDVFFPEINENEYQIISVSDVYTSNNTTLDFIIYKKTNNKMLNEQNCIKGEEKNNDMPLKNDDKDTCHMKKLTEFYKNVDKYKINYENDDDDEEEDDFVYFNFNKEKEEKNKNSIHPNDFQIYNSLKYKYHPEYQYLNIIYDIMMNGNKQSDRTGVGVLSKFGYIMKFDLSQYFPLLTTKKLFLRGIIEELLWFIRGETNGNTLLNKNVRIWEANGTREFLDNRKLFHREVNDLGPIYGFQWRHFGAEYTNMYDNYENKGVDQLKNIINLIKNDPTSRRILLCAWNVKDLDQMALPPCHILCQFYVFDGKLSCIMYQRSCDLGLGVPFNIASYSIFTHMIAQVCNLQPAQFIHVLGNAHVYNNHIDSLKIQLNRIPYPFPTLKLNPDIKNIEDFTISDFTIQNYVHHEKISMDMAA
protocol-summary: Ratio of binding affinity for mutant (N51I+C59R+S108N+I164L) to that of wild type dihydrofolate reductase
The following compounds are listed with their measured Ratio values.
Response field accepts a number only; no unit should be typed.

NC1=NC(c2cccc(Oc3cc(Cl)cc(Cl)c3)c2)N(c2cccc(Cl)c2)C(N)=N1 (centres undefined)	1.5
CC(=O)OCCCc1nc(N)nc(N)c1-c1ccccc1	22.3
CCc1nc(N)nc(N)c1-c1ccc(C)cc1	710

## Task Any idea what Ratio was measured for CCc1nc(N)nc(N)c1-c1ccc2c(c1)OCO2 ?
## Result 244

## Task Entry Nc1nc(N)c(-c2ccccc2)c(CCCc2ccccc2)n1 : reported Ratio = ?
## Result 9.4

## Task Look at this compound and give its reported Ratio. CCCCCCC1(C)N=C(N)N=C(N)N1c1ccc(Cl)cc1 (centres undefined)
## Result 115

## Task So what does the record say about Ratio for NC1=NC(c2cccc(OCc3ccccc3)c2)N(c2cccc(Cl)c2)C(N)=N1 (centres undefined) ?
## Result 3.3

## Task For the compound shown here, NC1=NC(c2cccc(OCCCOc3cc(Cl)c(Cl)cc3Cl)c2)N(c2cccc(Cl)c2)C(N)=N1 (centres undefined) , give the reported Ratio.
## Result 1.1

## Task Report Ratio for COC(=O)CCCc1nc(N)nc(N)c1-c1ccccc1 please.
## Result 40

## Task Which Ratio value belongs to Nc1nc(N)c(-c2cccc(Cl)c2)c(CCOCCCOc2ccccc2)n1 ?
## Result 4.2

## Task Recorded Ratio for Nc1nc(N)c(-c2cccc(Cl)c2)c(CCCc2ccccc2)n1 , please?
## Result 1.7

## Task May I ask what Ratio has been recorded for NC1=NC(c2cccc(OCc3ccccc3)c2)N(c2ccc(Cl)cc2)C(N)=N1 (centres undefined) ?
## Result 911

## Task Ratio lookup needed for CC1(C)N=C(N)N=C(N)N1c1ccc(Cl)cc1 , thanks.
## Result 280

## Task Would you mind telling me what Ratio value was observed for CCc1nc(N)nc(N)c1-c1ccc(Cl)c(Cl)c1 ?
## Result 53

## Task Ratio lookup needed for CCCCCCCC1N=C(N)N=C(N)N1c1cccc(Cl)c1 (centres undefined) , thanks.
## Result 0.3

## Task What value of measured Ratio is listed for NC1=NC(c2ccc(Oc3ccccc3)cc2)N(c2ccc(Cl)cc2)C(N)=N1 (centres undefined) ?
## Result 555

## Task Find the recorded Ratio belonging to NC1=NC(c2ccccc2)N(c2cccc(Cl)c2)C(N)=N1 (centres undefined) and report it.
## Result 84.1

## Task Which Ratio is reported for this compound? NC1=NC(c2cccc(Oc3ccc(Cl)cc3)c2)N(c2ccc(Cl)cc2)C(N)=N1 (centres undefined)
## Result 86.4

## Task Requested read-out: Ratio. Entry: Nc1nc(N)c(-c2ccccc2)c(CCCO)n1
## Result 6.5
